Listed here: items and their measured ADCC cytotoxic activity (51Cr release) on HT-1376.
Assay Target: T1, CAPRIN-1 protein expressed on the membrane surface of human cancer cells (human, UniProt Q14444 2-709)
T1 sequence (looked up): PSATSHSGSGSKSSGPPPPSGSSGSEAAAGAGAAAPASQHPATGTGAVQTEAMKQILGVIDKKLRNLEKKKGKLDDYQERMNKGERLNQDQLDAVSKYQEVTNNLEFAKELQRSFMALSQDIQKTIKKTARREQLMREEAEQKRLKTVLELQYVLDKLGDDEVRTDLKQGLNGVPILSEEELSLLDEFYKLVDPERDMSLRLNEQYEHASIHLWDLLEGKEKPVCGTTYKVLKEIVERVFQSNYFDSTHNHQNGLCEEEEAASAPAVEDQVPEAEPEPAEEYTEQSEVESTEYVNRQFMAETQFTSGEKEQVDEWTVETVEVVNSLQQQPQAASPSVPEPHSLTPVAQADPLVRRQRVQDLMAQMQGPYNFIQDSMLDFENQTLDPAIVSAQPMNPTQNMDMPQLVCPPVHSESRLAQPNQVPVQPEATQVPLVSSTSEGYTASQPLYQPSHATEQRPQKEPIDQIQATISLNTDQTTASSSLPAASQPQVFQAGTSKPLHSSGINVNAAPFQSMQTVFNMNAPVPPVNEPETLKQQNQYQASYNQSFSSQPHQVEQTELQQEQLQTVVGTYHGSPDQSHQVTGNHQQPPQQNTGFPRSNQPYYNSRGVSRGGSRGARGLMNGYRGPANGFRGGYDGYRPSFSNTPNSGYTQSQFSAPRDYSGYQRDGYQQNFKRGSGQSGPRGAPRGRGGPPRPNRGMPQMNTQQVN
Assay Comment: cell-based or functional assay

Below are worked cases with known answers.
Binder	Result
humanized antibody #5 (antibody, V domains shown) VH: EVQLVESGGGLVQPGGSLRLSCAASGFSLSSHSLGWVRQAPGKGLEWIGDIRSGGSAYYANWAKGRFTISRDNSKNTLYLQMNSLRAEDTAVYFCTRTNGPSDLTNRLDLWGQGTLVTVSS VL: EQVLTQSPSSLSASVGDRVTINCQASQSLYNNENLAWFQQKPGKVPKRLIYGASTLASGVSSRFSGSGSGTEFTLTISNLQPEDFAIYYCLGEFSCGSADCFAFGGGTKVEIK	≥ 40%
humanized antibody #4 (antibody, V domains shown) VH: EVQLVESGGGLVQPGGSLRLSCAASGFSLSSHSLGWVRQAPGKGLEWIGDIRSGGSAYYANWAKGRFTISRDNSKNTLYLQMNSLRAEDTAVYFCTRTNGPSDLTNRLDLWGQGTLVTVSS VL: EIVLTQSPSSLSASVGDRVTINCQASQSLYNNENLAWFQQKPGKVPKRLIYGASTLASGVSSRFSGSGSGTEFTLTISNLQPEDFATYYCLGEFSCGSADCFAFGGGTKVEIK	≥ 40%

In the following, a different binder is considered.
For the binder shown here, human-rabbit chimeric anti-CAPRIN-1 antibody (antibody, V domains shown) VH: QSLEESGGRLVTPGTPLTLTCTASGFSLSSHSLGWVRQAPGKGLEWIGDIRSGGSAYYANWAKGRFTISRTSTTVALKMTSLTTEDTATYFCTRTNGPSDLTNRLDLWGQGTLVTVSS VL: QVLTQTPSSVSAAVGGTVTINCQASQSLYNNENLAWFQQKPGQPPKRLIYGASTLASGVSSRFKGSGSGTQFTLTIGDVQCDDAAIYYCLGEFSCGSADCFAFGGGTEVVVK , give the reported ADCC cytotoxic activity (51Cr release) on HT-1376. ≥ 28%
